- Measured On: Mitotic checkpoint serine/threonine-protein kinase BUB1 (Homo sapiens)
- Sequence (O43683 whole entry, the tested form may be a part): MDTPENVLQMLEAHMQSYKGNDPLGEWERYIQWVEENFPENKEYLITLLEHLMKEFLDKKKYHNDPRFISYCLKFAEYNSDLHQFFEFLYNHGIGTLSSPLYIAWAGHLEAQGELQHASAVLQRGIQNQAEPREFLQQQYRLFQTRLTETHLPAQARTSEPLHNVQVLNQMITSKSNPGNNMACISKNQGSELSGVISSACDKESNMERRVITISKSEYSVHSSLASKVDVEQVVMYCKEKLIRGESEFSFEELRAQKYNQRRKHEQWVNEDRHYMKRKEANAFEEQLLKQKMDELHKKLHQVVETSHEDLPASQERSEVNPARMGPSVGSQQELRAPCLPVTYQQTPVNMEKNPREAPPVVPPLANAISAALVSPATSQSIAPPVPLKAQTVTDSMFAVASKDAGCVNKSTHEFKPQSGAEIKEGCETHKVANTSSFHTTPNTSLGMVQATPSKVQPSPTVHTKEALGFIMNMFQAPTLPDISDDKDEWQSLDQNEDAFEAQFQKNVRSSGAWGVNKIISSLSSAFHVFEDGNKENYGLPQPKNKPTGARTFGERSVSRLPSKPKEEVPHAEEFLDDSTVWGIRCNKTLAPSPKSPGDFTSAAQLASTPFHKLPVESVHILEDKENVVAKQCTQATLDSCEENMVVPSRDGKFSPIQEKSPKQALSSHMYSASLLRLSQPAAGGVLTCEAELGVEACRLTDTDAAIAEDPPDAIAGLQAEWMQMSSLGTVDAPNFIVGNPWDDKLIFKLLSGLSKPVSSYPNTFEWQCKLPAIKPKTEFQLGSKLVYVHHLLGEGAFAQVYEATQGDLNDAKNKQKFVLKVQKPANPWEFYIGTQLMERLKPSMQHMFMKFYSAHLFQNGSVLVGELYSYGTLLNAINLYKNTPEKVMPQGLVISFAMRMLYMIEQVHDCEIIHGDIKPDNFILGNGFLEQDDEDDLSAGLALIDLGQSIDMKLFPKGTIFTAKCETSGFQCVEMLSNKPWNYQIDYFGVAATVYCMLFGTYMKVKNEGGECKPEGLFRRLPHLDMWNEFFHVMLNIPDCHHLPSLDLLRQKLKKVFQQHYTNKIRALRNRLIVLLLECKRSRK
- Test: Bub1 Kinase Assay: Recombinant fusion proteins of GST and human CDK2 and of GST and human CycE, expressed in insect cells (Sf9) and purified by Glutathion-Sepharose affinity chromatography, were purchased from ProQinase GmbH (Freiburg, Germany). As substrate for the kinase reaction biotinylated peptide biotin-Ttds-YISPLKSPYKISEG (C-terminus in amid form) was used which can be purchased e.g. form the company JERINI peptide technologies (Berlin, Germany). For the assay 50 nl of a 100 fold concentrated solution of the test compound in DMSO was pipetted into a black low volume 384 well microtiter plate (Greiner Bio-One, Frickenhausen, Germany), 2 ul of a solution of CDK2/CycE in aqueous assay buffer [50 mM Tris/HCl pH 8.0, 10 mM MgCl2, 1.0 mM dithiothreitol, 0.1 mM sodium ortho-vanadate, 0.01% (v/v) Nonidet-P40 (Sigma)] were added and the mixture was incubated for 15 min at 22° C. to allow pre-binding of the test compounds to the enzyme before the start of the kinase reaction. Then the kinase reaction was started by the addition of 3 ul of a solution of adenosine-tri-phosphate (ATP, 16.7 uM=>final conc. in the 5 ul assay volume is 10 uM) and substrate (1.25 uM=>final conc. in the 5 ul assay volume is 0.75 uM) in assay buffer and the resulting mixture was incubated for a reaction time of 25 min at 22° C. The concentration of CDK2/CycE was adjusted depending of the activity of the enzyme lot and was chosen appropriate to have the assay in the linear range, typical concentrations were in the range of 130 ng/ml. The reaction was stopped by the addition of 5 ul of a solution of TR-FRET detection reagents (0.2 uM streptavidine-XL665 [Cisbio Bioassays, Codolet, France] and 1 nM anti-RB(pSer807/pSer811)-antibody from BD Pharmingen [#558389] and 1.2 nM LANCE EU-W1024 labeled anti-mouse IgG antibody [Perkin-Elmer, product no. AD0077, as an alternative a Terbium-cryptate-labeled anti-mouse IgG antibody from Cisbio Bioassays can be used]) in an aqueous EDTA-solution (100 mM EDTA, 0.2% (w/v) bovine serum albumin in 100 mM HEPES/NaOH pH 7.0). The resulting mixture was incubated 1 h at 22° C. to allow the formation of complex between the phosphorylated biotinylated peptide and the detection reagents.
Reported Property: pIC50
Numbers only, as −log10 of the molar value.

For `Cc1nsc(Nc2cncc(-n3cccn3)n2)c1C(=O)Nc1ccc(F)c(F)c1` , what is its reported pIC50?
4.82
